Give self-cleavage for every item shown.
B1: Twister Ribozyme (parent)
chain: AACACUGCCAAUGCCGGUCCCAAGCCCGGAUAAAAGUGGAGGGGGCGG

Variants of: B1
Experiment: self-cleavage, relative activity (ratio to wild type); higher = more cleavage; co-transcriptional
Lab note: record the figure alone, no unit after it.

q: Looking for the measured self-cleavage of A23C A40U , can you help?
a: 0.146

q: Reported self-cleavage, variant G17U G41U : ____
a: 0.101

q: self-cleavage for C5G G47C ?
a: 0.269

q: What does the record list as self-cleavage for U6C A33G ?
a: 0.429

q: Any idea what self-cleavage was measured for G24C C26A ?
a: 0.0895

q: # lookup: self-cleavage of A4G
a: 1

q: // lookup self-cleavage for G16A G45U
a: 0.858

q: Which self-cleavage is reported for this variant? A11C C27A
a: 0.176

q: self-cleavage lookup needed for G41C G43C , thanks.
a: 0.148

q: For G17U G41A , what is its reported self-cleavage?
a: 0.103

q: Requested field: self-cleavage. Item: A2C C25A
a: 0.0593

q: I am curious: what self-cleavage value has been reported for A11C C27G ?
a: 0.0803

q: Fill in the blank: the reported self-cleavage of A1U C15A is ____.
a: 0.0603

q: # self-cleavage lookup, item C21A C27G
a: 0.0914

q: State the recorded self-cleavage for this entry: A23G U37G
a: 0.17

q: Consider the variant shown here: A2G C26A What is its recorded self-cleavage?
a: 0.134

q: Consider the variant shown here: U37A G42C What is its recorded self-cleavage?
a: 0.252

q: Look up self-cleavage for this variant: A11C G47U
a: 0.977

q: I'd like to know its self-cleavage. The variant in question is A1C A23G
a: 0.145

q: Which self-cleavage is listed for A23U U37G ?
a: 0.0831

q: Report self-cleavage for A2U A32U please.
a: 0.722

q: Value lookup for self-cleavage; key = U37A G43U
a: 0.186
